target: Tyrosyl-DNA phosphodiesterase 2 (Homo sapiens); experiment: Inhibition of recombinant human Tdp2 assessed as decrease in alpha 32P-cordycepin-3'-labeled DNA breaks after 15 mins by PAGE analysis
Sequence (O95551 whole entry): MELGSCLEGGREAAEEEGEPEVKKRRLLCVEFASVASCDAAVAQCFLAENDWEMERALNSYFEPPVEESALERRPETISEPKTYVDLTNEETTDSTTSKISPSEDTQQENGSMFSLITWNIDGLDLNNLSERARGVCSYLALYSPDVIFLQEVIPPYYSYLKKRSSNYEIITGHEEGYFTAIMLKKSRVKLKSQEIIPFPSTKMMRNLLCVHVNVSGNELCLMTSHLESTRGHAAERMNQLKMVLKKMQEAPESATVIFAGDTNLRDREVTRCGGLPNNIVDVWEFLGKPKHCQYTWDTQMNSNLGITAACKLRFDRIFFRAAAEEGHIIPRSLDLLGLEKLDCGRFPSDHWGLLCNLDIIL
pIC50: −log10 of the molar value.
property-name: pIC50

// worked examples, pIC50 included
CNCCCn1c2c(c3ccc([N+](=O)[O-])cc3c1=O)C(=O)c1cc(OC)cnc1-2 :: 3.95 to 4.43
COc1cnc2c(c1)C(=O)c1c-2n(CCCN2CCNCC2)c(=O)c2cc([N+](=O)[O-])ccc12 :: 3.95 to 4.43
COc1cnc2c(c1)C(=O)c1c-2n(CCCN2CCN(CCO)CC2)c(=O)c2cc([N+](=O)[O-])ccc12 :: < 3.95

In: Identify the reported pIC50 for the following entry. COc1cnc2c(c1)C(=O)c1c-2n(CCCBr)c(=O)c2cc([N+](=O)[O-])ccc12
Out: 3.95 to 4.43
